Below is a list of entries, each paired with its recorded Dose value.
Test system: Mus musculus
method.summary: Toxicity after intraperitoneal injection into mice by using toxicity screen test after 0.5 hr
Type: organism-based
experimental.setup: in vivo, ip
# unit: mg/kg | format: bare number

// solved cases for Dose follow
> print(dat)
                         structure.notation  experimental.value
1  NC(=O)N/N=C\c1ccc(OS(=O)(=O)c2ccccc2)cc1                 300
2   NC(=O)C(=O)N/N=C/c1ccc(Oc2ccc(F)cc2)cc1                 300

Could you tell me which Dose is on file for `NC(=O)N/N=C/c1ccc(Oc2c(F)cccc2F)cc1` ?
300

Could you tell me which Dose is on file for `C/C(=N/NC(N)=O)c1ccc(Sc2ccc(F)cc2)cc1` ?
300

Could you tell me which Dose is on file for `C/C(=N/NC(N)=O)c1ccc(Oc2ccccc2)cc1` ?
100

Could you tell me which Dose is on file for `CCCc1ccccc1Oc1ccc(/C=N/NC(N)=O)cc1` ?
300

* * *

method.summary: Partition coefficient (logP)
Type: physicochemical
experimental.setup: octanol/water
recorded.endpoint: logP
// return just the number, without any unit appended

// solved cases for logP follow
> print(dat)
                          compound  experimental.value
1  NC(=O)N/N=C/c1ccc(Oc2ccccc2)cc1                2.66
2  NC(=O)N/N=C\c1cccc(Oc2ccccc2)c1                2.07

Could you tell me which logP is on file for `NC(=O)N/N=C/c1ccc(Oc2ccc(F)cc2)cc1` ?
1.91

Could you tell me which logP is on file for NC(=O)N1c2ccccc2C=Cc2ccccc21 [CARBAMAZEPINE] ?
2.2

Could you tell me which logP is on file for `CC(=O)N/N=C/c1ccc(Oc2ccc(F)cc2)cc1` ?
1.96

Could you tell me which logP is on file for `C/C(=N/NC(N)=O)c1ccc(Oc2ccc(F)cc2)cc1` ?
2.03

Could you tell me which logP is on file for `COc1ccc(Oc2ccc(/C=N/NC(N)=O)cc2)cc1` ?
1.29

Could you tell me which logP is on file for `NC(=O)N/N=C/c1ccc(Oc2ccc(Oc3ccccc3)cc2)cc1` ?
1.92

Could you tell me which logP is on file for `NNC(=O)N/N=C/c1ccc(Oc2ccc(F)cc2)cc1` ?
2.06

* * *

System: Mus musculus
method.summary: Compound was tested for toxicity after intraperitoneal injection into mice by using toxicity screen test after 4 hr
Type: organism-based
experimental.setup: in vivo, ip
Below is a list of entries, each paired with its recorded Dose value.
# unit: mg/kg | format: bare number

// solved cases for Dose follow
> print(dat)
                         structure.notation  experimental.value
1      CCCc1ccc(Oc2ccc(/C=N/NC(N)=O)cc2)cc1                 300
2       Cc1cc(I)ccc1Oc1ccc(/C=N/NC(N)=O)cc1                 100
3  NC(=O)N/N=C\c1ccc(OS(=O)(=O)c2ccccc2)cc1                 300
4     Cc1ccc(Oc2ccc(/C=N/NC(N)=O)cc2)c(C)c1                 100
5      NC(=O)N/N=C/c1ccc(Oc2ccc(F)cc2Br)cc1                 300

API: value(readout= Dose, system= Mus musculus, query= `NC(=O)N/N=C/c1ccc(Oc2ccc(Br)cc2)cc1` )
30

* * *

method.summary: Compound was tested for toxicity after oral administration in rat by using neurotoxicity screen test after 0.25-24 hr
Assay type: organism-based
experimental.setup: in vivo
Below is a list of entries, each paired with its recorded TD50 value.

// solved cases for TD50 follow
> print(dat)
                                   compound  recorded.endpoint  experimental.value
1  CCC(C)c1ccc(Oc2ccc(/C=N\NC(N)=O)cc2)cc1 (stereo unspecified)               TD50         > 322 mg/kg
2        Cc1ccc(Oc2ccc(/C=N/NC(N)=O)cc2)cc1               TD50         > 500 mg/kg
3     NC(=O)N/N=C/c1ccc(Oc2ccc(F)c(F)c2)cc1               TD50         > 500 mg/kg
4   CC/C(=N/NC(N)=O)c1ccc(Oc2ccc(Cl)cc2)cc1               TD50         > 500 mg/kg
5           NC(=O)N/N=C/c1ccc(Sc2ccccc2)cc1               TD50         > 496 mg/kg

API: the following record is the query input.
Could you tell me which TD50 is on file for `NC(=O)N/N=C/c1ccc(Oc2ccc(F)cc2)cc1` ?
> 500 mg/kg

* * *

System: Rattus norvegicus
method.summary: Compound was tested for anticonvulsant activity after Oral Administration into Rats by using MES screen test after 2h,dose 30 mg/kg; number of rats out of four which were protected
Assay type: functional
recorded.endpoint: Activity
// return just the number, without any unit appended

// solved cases for Activity follow
> print(dat)
                        structure.notation  experimental.value
1      Cc1cccc(C)c1Oc1ccc(/C=N/NC(N)=O)cc1                   4
2      CC/C(=N/NC(N)=O)c1ccc(Sc2ccccc2)cc1                   3
3   CC/C(=N/NC(N)=O)c1ccc(Sc2ccc(F)cc2)cc1                   3
4         NC(=O)N/N=C\c1ccccc1Oc1ccc(F)cc1                   2
5  CC/C(=N/NC(N)=O)c1ccc(Oc2ccc(Cl)cc2)cc1                   4
6   C/C(=N/NC(N)=O)c1ccc(Oc2ccc(Cl)cc2)cc1                   4
7      CC/C(=N/NC(N)=O)c1ccc(Oc2ccccc2)cc1                   3
8    C/C(=N/NC(N)=O)c1ccc(Sc2ccc(F)cc2)cc1                   4

Could you tell me which Activity is on file for `C/C(=N/NC(N)=O)c1ccccc1Oc1ccc(F)cc1` ?
3

* * *

Below is a list of entries, each paired with its recorded Dose value.
Tested on: Mus musculus
method.summary: Compound was tested for toxicity after intraperitoneal injection into mice by using toxicity screen test after 4 hr
Format: organism-based
experimental.setup: in vivo, ip
# unit: mg/kg | format: bare number

// solved cases for Dose follow
> print(dat)
                    structure.notation  unit.info  experimental.value
1  CC/C(=N/NC(N)=O)c1ccc(Oc2ccccc2)cc1      mg/kg                 100
2   NC(=O)N/N=C/c1ccc(Sc2ccc(F)cc2)cc1      mg/kg                 100

API: the following record is the query input.
Could you tell me which Dose is on file for `NC(=O)N/N=C/c1ccc(Oc2ccc(Cl)cc2)cc1` ?
30
